These entries and their values trace back to patent US12421242B2.

test system: human M4 receptor (Homo sapiens)
Sequence (P08173 1-479): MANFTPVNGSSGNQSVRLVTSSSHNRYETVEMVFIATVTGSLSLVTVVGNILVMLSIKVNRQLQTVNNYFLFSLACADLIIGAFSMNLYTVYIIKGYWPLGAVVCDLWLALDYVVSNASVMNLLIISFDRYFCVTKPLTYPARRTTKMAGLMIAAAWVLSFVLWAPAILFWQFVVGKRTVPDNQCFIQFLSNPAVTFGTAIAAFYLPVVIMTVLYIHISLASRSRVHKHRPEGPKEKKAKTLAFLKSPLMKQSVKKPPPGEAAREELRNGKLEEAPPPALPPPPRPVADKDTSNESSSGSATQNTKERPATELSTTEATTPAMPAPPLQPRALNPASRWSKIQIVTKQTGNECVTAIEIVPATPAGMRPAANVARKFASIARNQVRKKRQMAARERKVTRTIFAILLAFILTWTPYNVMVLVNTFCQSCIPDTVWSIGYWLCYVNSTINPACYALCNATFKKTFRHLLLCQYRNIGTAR
test: M4 GTPγS PAM assay
measurement context: CHO-K1 membranes expressing human M4, with EC20 acetylcholine (40 nM)
Method: The M4 GTPγS PAM method was used. Membranes were prepared for GTPgS binding assays from CHO-K1 cells stably expressing human M4 receptor. Briefly, cells were grown in 5-layer cell culture flasks. Cells were washed with 50 mL of PBS and then dissociated with 0.05% trypsin. Dissociated cells were then collected by centrifugation at 650×g for 8 minutes at 4° C. […] Membrane protein concentration is determined by BCA protein assay (Promega, Madison, WI) according to Promega guidelines. […]
EC50 values by entry

Solved cases (2 shown):
* Cc1c2c(n(C)c(=O)c1Cl)CN(C(=O)c1cn3c(n1)CCCC3)C2 | > 2000 nM
* COc1c2c(n(C)c(=O)c1C)CN(C(=O)c1cnn(C(F)(F)F)c1)C2C (single isomer, unassigned) [Compound I-84] | > 2000 nM

Provide one value: measured EC50 of `Cc1c2c(n(C)c(=O)c1Cl)CN(C(=O)c1cnc(CC3CC3)s1)C2` 100 to 500 nM

Provide one value: measured EC50 of `Cc1c2c(n(CC(F)(F)F)c(=O)c1Cl)CN(C(=O)c1ccc3nc(C4CC4)sc3c1)C2` 100 to 500 nM

Provide one value: measured EC50 of `Cc1cc(=O)n(C)c2c1[C@@H](C)N(C(=O)c1ccc3nc(C4CC4)sc3c1)C2` > 2000 nM

Provide one value: measured EC50 of `Cc1c(OC(F)F)c2c(n(C)c1=O)CN(C(=O)c1cnn(C(F)(F)F)c1)C2` 500 to 2000 nM
